System: Staphylococcus xylosus (DSM 20287)
Type: cell-based
Experimental setup: DSM 20287, 20 h
No end group written: not given here.
Measured MIC S. xylosus, listed per entry.
Measured endpoint: MIC S. xylosus

{"columns": ["Substance", "Test target", "Measured endpoint", "Value"],
 "data": [
  ["KLKLKLKLKLKL-NH2 [KL12]", "Staphylococcus xylosus (DSM 20287)", "MIC S. xylosus", "2 µg/mL"],
  ["KLKLKLKLKLKLKLKLKLKL-NH2 [KL20]", "Staphylococcus xylosus (DSM 20287)", "MIC S. xylosus", "16 µg/mL"],
  ["KLKLKLKLKLKLKLKLKLKLKL-NH2 [KL22]", "Staphylococcus xylosus (DSM 20287)", "MIC S. xylosus", "16 µg/mL"],
  ["KLKLKLKLKL-NH2 [KL10]", "Staphylococcus xylosus (DSM 20287)", "MIC S. xylosus", "2 µg/mL"]
]}
